- target-entity: Nociceptin receptor (Homo sapiens, UniProt P41146)
- Sequence (P41146 whole entry): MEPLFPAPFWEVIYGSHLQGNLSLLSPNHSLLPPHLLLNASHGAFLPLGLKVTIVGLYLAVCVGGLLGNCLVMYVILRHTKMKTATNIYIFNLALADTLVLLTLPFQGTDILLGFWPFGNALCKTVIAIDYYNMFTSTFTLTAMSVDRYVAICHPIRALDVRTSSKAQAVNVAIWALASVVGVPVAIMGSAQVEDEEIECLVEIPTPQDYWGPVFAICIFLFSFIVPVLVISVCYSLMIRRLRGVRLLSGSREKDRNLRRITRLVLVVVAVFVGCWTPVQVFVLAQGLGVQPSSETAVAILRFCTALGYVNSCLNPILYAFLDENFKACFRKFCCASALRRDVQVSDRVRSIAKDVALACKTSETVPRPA
- experiment-description: Inhibitory activity against human orphanin FQ receptor expressed in recombinant HEK 293 cells
- Format: cell-based
- Set-up: concentration or dose not given beside the values
- recorded-conditions: HEK293; concentration not given here
Consider the following compounds; for each one, report its inhibition.
One number for each entry, in %.

Give inhibition for each of the items listed below.
1. OC1(c2ccc(Cl)cc2)CCN(Cc2ccc3ccccc3c2)CC1
2. N#CC1(c2ccccc2)CCN(Cc2cccc3ccccc23)CC1

[out]
1: 90; 2: 55

Entry under test: "OC1(c2cccc(C(F)(F)F)c2)CCN(Cc2ccc(F)cc2)CC1" . Its inhibition was 80
